Here we gather IC50 data for Proto-oncogene tyrosine-protein kinase Src (Homo sapiens, UniProt P12931) reported by several publications.
ASSAY_METRIC: IC50

INSERT INTO results (mol_smiles, target_or_test_system, result) VALUES
  ('COc1cc(Nc2ncnc(Nc3ccc4[nH]ncc4c3)n2)cc(OC)c1OC', 'Proto-oncogene tyrosine-protein kinase Src (Homo sapiens, UniProt P12931)', '< 1020 nM'),
  ('Cc1ccc(-n2nc(C(C)(C)C)cc2NC(=O)Nc2ccc(OCc3ccnc(Nc4cnccn4)c3)c3ccccc23)cc1C(F)(F)F', 'Proto-oncogene tyrosine-protein kinase Src (Homo sapiens, UniProt P12931)', '> 15000 nM'),
  ('C=CC(=O)N1CCC(C#Cc2c(-c3ccc(Oc4ccccc4)cn3)c3c(N)ncnc3n2C(C)C)CC1', 'Proto-oncogene tyrosine-protein kinase Src (Homo sapiens, UniProt P12931)', '10 to 1000 nM'),
  ('C=CC(=O)Nc1c(F)cccc1Nc1nc(Nc2ccc(N3CCN(C)CC3)cc2)ncc1Cl', 'Proto-oncogene tyrosine-protein kinase Src (Homo sapiens, UniProt P12931)', '1 to 10 nM');

###

pIC50 for UniProt P12931, merged from several publications.
pIC50: −log10 of the molar value.
ASSAY_METRIC: pIC50

INSERT INTO results (compound, assay_metric, result) VALUES
  ('COc1cc(Nc2cc(Oc3ccc(NC(=O)Nc4cc(C(C)(C)C)cc(S(C)(=O)=O)c4OC)c4ccccc34)ccn2)cc(C(=O)NCCN2CCOCC2)c1', 'pIC50', 7.37),
  ('Cc1ccc([N+](=O)[O-])cc1C(=O)Nc1cnc2[nH]c(-c3ccccc3)nc2c1', 'pIC50', '5.46 to 6.52'),
  ('C#Cc1cc(Nc2cc(Oc3ccc(NC(=O)Nc4cc(C(C)(C)C)cc(NS(C)(=O)=O)c4OC)c4ccccc34)ccn2)cc(C(=O)NCCN2CCOCC2)c1', 'pIC50', 7.25),
  ('CN(C)CC(=O)NNC(=O)c1nc2nc(Nc3ccc(F)cc3)ncc2cc1-c1ccccc1Br', 'pIC50', 7.77),
  ('CS(=O)(=O)c1cccc(-c2cnc3[nH]cc(C(=O)c4cc(NS(=O)(=O)c5cccnc5)ccc4F)c3c2)c1', 'pIC50', '≥ 5.00'),
  ('Cc1ccc(NC(=O)c2cccc(C(F)(F)F)c2)cc1C(=O)Nc1cnc(Nc2ccc(C(=O)NCCN3CCCC3)cc2)nc1', 'pIC50', 8.77),
  ('CCN(CC)CCOc1ccc(Nc2ncc3c(n2)N(C)C(=O)N(c2cc(NC(=O)c4ccc(-c5ccccc5)cc4)ccc2Cl)C3)cc1', 'pIC50', '7.82 to 9.00'),
  ('O=C(Nc1cnc2[nH]c(-c3ccccc3)cc2c1)c1ccccc1Cl', 'pIC50', '6.52 to 8.30'),
  ('C[C@H]1CNC(=O)c2cnn3cc(-c4ccccc4Cl)c(nc23)NCc2cc(F)cnc2O1', 'pIC50', 10.02),
  ('COc1cc(Nc2nc3c(N4CCCC4c4ccccn4)nccn3n2)cc(OC)c1 (stereo not shown)', 'pIC50', '4.30 to 5.52'),
  ('CC(C)n1c(C#Cc2cnn(C)c2)c(-c2ccc(Oc3ccccc3)cc2)c2c(N)ncnc21', 'pIC50', '6.00 to 8.00'),
  ('Cn1c(C#CC2CCN(C(=O)/C=C/CN3CCOCC3)CC2)c(-c2ccc(Oc3ccccc3)cc2)c2c(N)ncnc21', 'pIC50', '6.00 to 8.00'),
  ('CC(=O)Nc1ccc(-c2cc3cc(NC(=O)OCC(C)(C)C)cnc3[nH]2)cc1', 'pIC50', '6.30 to 8.00'),
  ('CC(c1ccccc1)N1CCC(C#Cc2c(-c3ccc(Oc4ccccc4)cc3)c3c(N)ncnc3n2C(C)C)CC1 (stereo not shown)', 'pIC50', '6.00 to 8.00'),
  ('COc1cc(Nc2nc3c(-c4cnn(C)c4)nccn3n2)cc(OC)c1', 'pIC50', '5.52 to 6.52'),
  ('CC(C)n1c(C#CC2CCN(C(=O)/C=C/CN(C)C)C2)c(-c2ccc(Oc3ccccc3)cc2)c2c(N)ncnc21 (stereo not shown)', 'pIC50', '≥ 8.00');
